test.details: in vitro metabolic stability in human plasma
run.conditions: 30 min and 60 min
measurement.kind: stability in human plasma (in words)

{"compound": "CC(C)OC(=O)C(CCC(=O)C=[N+]=[N-])NP(=O)(NC(CCC(=O)C=[N+]=[N-])C(=O)OC(C)C)Oc1ccccc1 (stereo not shown)", "measurement": "stable"}
{"compound": "CC(C)OC(=O)[C@H](CCC(=O)C=[N+]=[N-])NP(=O)(Oc1ccccc1)Oc1ccccc1", "measurement": "stable"}

FYI, the data here is from patent US11926640B2.
